Target: T1, CRBN, Q96SW2;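 also: pooled lentiviral library of zinc finger degron-EGFP fusions in mCherry-positive Jurkat cells, FACS-sorted after compound exposure, with degron abundance counted by next-generation sequencing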
T1 chain: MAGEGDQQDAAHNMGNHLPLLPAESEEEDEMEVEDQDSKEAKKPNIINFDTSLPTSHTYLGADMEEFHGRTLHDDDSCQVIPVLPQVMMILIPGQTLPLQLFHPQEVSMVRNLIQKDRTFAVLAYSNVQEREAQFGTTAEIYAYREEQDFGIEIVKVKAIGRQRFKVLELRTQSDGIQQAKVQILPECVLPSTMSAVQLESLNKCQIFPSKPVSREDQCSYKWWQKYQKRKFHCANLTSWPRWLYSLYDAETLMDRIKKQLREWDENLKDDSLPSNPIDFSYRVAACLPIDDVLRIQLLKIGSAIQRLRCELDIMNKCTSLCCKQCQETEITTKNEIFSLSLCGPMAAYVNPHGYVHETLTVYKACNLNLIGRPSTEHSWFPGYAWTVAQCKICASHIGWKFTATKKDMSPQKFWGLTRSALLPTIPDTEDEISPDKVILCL
Assay: log2 fold change of degron read counts, EGFP-low vs EGFP+ sorted cells (limma voom), compound-induced degradation; higher = more compound-induced degradation of the degron-EGFP fusion; degrons are variants of IKZF1/3 zinc finger 2; compound dose not given here
Details: Jurkat; 18 h; compound: compound 33 (diphenyl IMiD analogue)
The full ranking holds about 8,300 sequences; the median of “log2 fold change of degron read counts, EGFP-low vs EGFP+ sorted cells (limma voom), compound-induced degradation” is about -1.1, and the highest 2% start at about 3.2. Many of the other results were omitted from the sample, so the highest values are more common in it than they were.
Measured Property: log2 fold change of degron read counts
Output: the number by itself.

// known answers, use as guide
>  <Sequence Text>
FVCEICGAMFTQKGNLLRHIKL [46F_47V_49E_50I_52G_53A_54M_55F_67L_, Q9UKT9]

>  <Meas Value>
1.67

$$$$
>  <Sequence Text>
FSCNQCGHKFTQKGNLLRHIKL [46F_47S_49N_50Q_52G_53H_54K_55F_67L_, Q9UKT9]

>  <Meas Value>
-2.41

$$$$
>  <Sequence Text>
FMCEICGADFTQKGNLLRHIKL [46F_47M_49E_50I_52G_53A_54D_55F_67L_, Q9UKT9]

>  <Meas Value>
1.99

$$$$
>  <Sequence Text>
FVCDICGALFTQKGNLLRHIKL [46F_47V_49D_50I_52G_53A_54L_55F_67L_, Q9UKT9]

>  <Meas Value>
-0.0343

$$$$
>  <Sequence Text>
FQCEICGADFTQKGNLLRHIKL [46F_47Q_49E_50I_52G_53A_54D_55F_67L_, Q9UKT9]

>  <Meas Value>
1.29

$$$$

// query log2 fold change of degron read counts value for entry FFCEICGHPFTQKGNLLRHIKL [46F_47F_49E_50I_52G_53H_54P_55F_67L_, Q9UKT9]
// result -0.864

// query Repeat for the following sequence: FCCPVCGAHFTQKGNLLRHIKL [46F_47C_49P_50V_52G_53A_54H_55F_67L_, Q9UKT9]
// result 1.65
